The origin of these recorded values is the supplement of paper PMC10567573.

# protein stability index annotations
B1: STX11 (parent)
chain: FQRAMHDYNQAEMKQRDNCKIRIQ

Variants of: B1
Test: protein stability index of a GFP-peptide fusion (GPS, HEK-293T) (PSI 1-6); higher = more stable;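 also: lentivirally expressed fusions sorted by FACS into six bins by GFP to DsRed ratio, PSI derived from sequencing read proportions per bin multiplied by bin number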
Conditions: c terminus: a fixed tail appended
Please state the value as a number alone, without comment.

// solved cases for protein stability index follow
>  <chain-sequence>
FQRAMHDYNQAEMKQRDNCKIFIQ [R22F]

>  <readout-name>
protein stability index

>  <test-value>
2.04

$$$$
>  <chain-sequence>
FQRAMMDYNQAEMKQRDNCKIRIQ [H6M]

>  <readout-name>
protein stability index

>  <test-value>
1.96

$$$$
>  <chain-sequence>
FQRAMHDYNQAEMKQRDHCKIRIQ [N18H]

>  <readout-name>
protein stability index

>  <test-value>
2.02

$$$$
>  <chain-sequence>
FQRAMHDYNQAEMKQRRNCKIRIQ [D17R]

>  <readout-name>
protein stability index

>  <test-value>
1.82

$$$$
>  <chain-sequence>
FQRAMHLYNQAEMKQRDNCKIRIQ [D7L]

>  <readout-name>
protein stability index

>  <test-value>
1.43

$$$$
>  <chain-sequence>
FQRAMHDYNQAIMKQRDNCKIRIQ [E12I]

>  <readout-name>
protein stability index

>  <test-value>
2.44

$$$$
>  <chain-sequence>
FQRAMHDYNQAEMKQRDNCKIRIL [Q24L]

>  <readout-name>
protein stability index

>  <test-value>
3.09

$$$$
>  <chain-sequence>
FQRAMHDYNQACMKQRDNCKIRIQ [E12C]

>  <readout-name>
protein stability index

>  <test-value>
2.11

$$$$

Now look at this entry.
Please give measured protein stability index of the following entry: FQRAMHDYNQAEMKQRDNCKICIQ [R22C]
2.37
